tested on: Hep G2; test: Cytotoxicity assay (MTT), Hep G2 cell line; type: cell-based; conditions: 50 μM, 24 h
Measured Percentage of inhibition of cell growth accompanies every entry in the list below.

sample_smiles	study_target	Percentage of inhibition of cell growth [%]
CC[C@H]1OC(=O)[C@H](C)[C@@H](O[C@H]2C[C@@](C)(OC)[C@@H](OC(=O)CCN(C)C3CCCCC3)[C@H](C)O2)[C@H](C)[C@@H](O[C@@H]2O[C@H](C)C[C@H](N(C)C)[C@H]2O)[C@](C)(OC)C[C@@H](C)C(=O)N[C@H](C)[C@@H](O)[C@]1(C)O	Hep G2	8
CC[C@H]1OC(=O)[C@H](C)[C@@H](O[C@H]2C[C@@](C)(OC)[C@@H](OC(=O)CCN(CC)CC)[C@H](C)O2)[C@H](C)[C@@H](O[C@@H]2O[C@H](C)C[C@H](N(C)C)[C@H]2O)[C@](C)(OC)C[C@@H](C)NC(=O)[C@H](C)[C@@H](O)[C@]1(C)O	Hep G2	0

---

system: IL-8; test: Inhibition of IL-8 production by stimulated human peripheral blood leukocytes in vitro; type: cell-based; conditions: Homo sapiens, Leukocyte, 10 μM; LPS-stimulated PBL; read-out: Percentage of inhibition of IL-8 production

compound	inhibition at 10 µM (%)
CC[C@H]1OC(=O)[C@H](C)[C@@H](O[C@H]2C[C@@](C)(OC)[C@@H](OC(=O)CCN(CC)CC)[C@H](C)O2)[C@H](C)[C@@H](O[C@@H]2O[C@H](C)C[C@H](N(C)C)[C@H]2O)[C@](C)(OC)C[C@@H](C)NC(=O)[C@H](C)[C@@H](O)[C@]1(C)O	48
CC[C@H]1OC(=O)[C@H](C)[C@@H](O[C@H]2C[C@@](C)(OC)[C@@H](OCCCN)[C@H](C)O2)[C@H](C)[C@@H](O[C@@H]2O[C@H](C)C[C@H](N(C)C)[C@H]2O)[C@](C)(O)C[C@@H](C)CN(C)[C@H](C)[C@H]2OC(=O)O[C@@]21C [Example 51C]	0
CC[C@H]1OC(=O)[C@H](C)[C@@H](O[C@H]2C[C@@](C)(OC)[C@@H](OC(=O)CCN(CC)CC)[C@H](C)O2)[C@H](C)[C@@H](O[C@@H]2O[C@H](C)C[C@H](N(C)C)[C@H]2O)[C@](C)(O)C[C@@H](C)CN(C)[C@H](C)[C@H]2OC(=O)O[C@@]21C	0
CC[C@H]1OC(=O)[C@H](C)[C@@H](O[C@H]2C[C@@](C)(OC)[C@@H](OC(=O)CCN3CC(C)CC(C)C3)[C@H](C)O2)[C@H](C)[C@@H](O[C@@H]2O[C@H](C)C[C@H](N(C)C)[C@H]2O)[C@](C)(OC)C[C@@H](C)C(=O)N[C@H](C)[C@@H](O)[C@]1(C)O (stereo partly shown)	14
CC[C@H]1OC(=O)[C@H](C)[C@@H](O[C@H]2C[C@@](C)(OC)[C@@H](OC(=O)CCN3CCN(CCCN4CCCCC4)CC3)[C@H](C)O2)[C@H](C)[C@@H](O[C@@H]2O[C@H](C)C[C@H](N(C)C)[C@H]2O)[C@](C)(OC)C[C@@H](C)C(=O)N[C@H](C)[C@@H](O)[C@]1(C)O	0
CC[C@H]1OC(=O)[C@H](C)C(O[C@H]2C[C@@](C)(OC)[C@@H](OC(=O)CCN(CC)CC)[C@H](C)O2)[C@H](C)[C@@H](O[C@@H]2O[C@H](C)C[C@H](N(C)C)[C@H]2O)[C@](C)(OC)C[C@@H](C)C(=O)[C@H](C)[C@H](O)[C@]1(C)O (stereo partly shown)	44
CC[C@H]1OC(=O)[C@H](C)[C@@H](O[C@H]2C[C@@](C)(OC)[C@@H](OC(=O)CCN(C)C3CCCCC3)[C@H](C)O2)[C@H](C)[C@@H](O[C@@H]2O[C@H](C)C[C@H](N(C)C)[C@H]2O)[C@](C)(OC)C[C@@H](C)C(=O)N[C@H](C)[C@@H](O)[C@]1(C)O	0
CC[C@H]1OC(=O)[C@H](C)[C@@H](O[C@H]2C[C@@](C)(OC)[C@@H](OC(=O)CCN3CCCCCC3)[C@H](C)O2)[C@H](C)[C@@H](O[C@@H]2O[C@H](C)C[C@H](N(C)C)[C@H]2O)[C@](C)(OC)C[C@@H](C)C(=O)N[C@H](C)[C@@H](O)[C@]1(C)O	29
CC[C@H]1OC(=O)[C@H](C)[C@@H](O[C@H]2C[C@@](C)(OC)[C@@H](OC(=O)CCN(C)CCO)[C@H](C)O2)[C@H](C)[C@@H](O[C@@H]2O[C@H](C)C[C@H](N(C)C)[C@H]2O)[C@](C)(OC)C[C@@H](C)C(=O)N[C@H](C)[C@@H](O)[C@]1(C)O	38
CC[C@H]1OC(=O)[C@H](C)[C@@H](O[C@H]2C[C@@](C)(OC)[C@@H](OC(=O)CCN3CCCN(CCCN4CCCC4)CC3)[C@H](C)O2)[C@H](C)[C@@H](O[C@@H]2O[C@H](C)C[C@H](N(C)C)[C@H]2O)[C@](C)(OC)C[C@@H](C)C(=O)N[C@H](C)[C@@H](O)[C@]1(C)O	21
CC[C@H]1OC(=O)[C@H](C)[C@@H](O[C@H]2C[C@@](C)(OC)[C@@H](OC(=O)CCN(CC)CC)[C@H](C)O2)[C@H](C)[C@@H](O[C@@H]2O[C@H](C)C[C@H](NC)[C@H]2O)[C@](C)(OC)C[C@@H](C)C(=O)N[C@H](C)[C@@H](O)[C@]1(C)O	0
CC[C@H]1OC(=O)[C@H](C)[C@@H](O[C@H]2C[C@@](C)(OC)[C@@H](OC(=O)CCN3CCN(CCN(C)C)CC3)[C@H](C)O2)[C@H](C)[C@@H](O[C@@H]2O[C@H](C)C[C@H](N(C)C)[C@H]2O)[C@](C)(OC)C[C@@H](C)C(=O)N[C@H](C)[C@@H](O)[C@]1(C)O	4
CC[C@H]1OC(=O)[C@H](C)[C@@H](O[C@H]2C[C@@](C)(OC)C(OC(=O)CCN(CC)CC)[C@H](C)O2)[C@H](C)[C@@H](O[C@@H]2O[C@H](C)C[C@H](NC)[C@H]2O)[C@](C)(O)C[C@@H](C)CN(C)[C@H](C)[C@@H](O)[C@]1(C)O (stereo partly shown)	4

---

test system: A549; assay: Cytotoxicity assay (MTT), A549 cell line; assay type: cell-based; details: 12.5 μM, 24 h

compound	Percentage of inhibition of cell growth
CC[C@H]1OC(=O)[C@H](C)[C@@H](OC2C[C@@](C)(OC)[C@@H](OC(=O)CCN3CCNCC3)[C@H](C)O2)[C@H](C)[C@@H](OC2O[C@H](C)C[C@H](N(C)C)[C@H]2O)[C@](C)(OC)C[C@@H](C)C(=O)[C@H](C)[C@@H](O)[C@]1(C)O (stereo partly shown) [Example 50]	10%
CC[C@H]1OC(=O)[C@H](C)[C@@H](O[C@H]2C[C@@](C)(OC)[C@@H](OC(=O)CCN3CCN(CCOCCO)CC3)[C@H](C)O2)[C@H](C)[C@@H](O[C@@H]2O[C@H](C)C[C@H](N(C)C)[C@H]2O)[C@](C)(OC)C[C@@H](C)C(=O)N[C@H](C)[C@@H](O)[C@]1(C)O [Example 18]	0%
CC[C@H]1OC(=O)[C@H](C)[C@@H](O[C@H]2C[C@@](C)(OC)[C@@H](OC(=O)CCN(CC)CC)[C@H](C)O2)[C@H](C)[C@@H](O[C@@H]2O[C@H](C)C[C@H](N(C)C)[C@H]2O)[C@](C)(OC)C[C@@H](C)C(=O)[C@H](C)[C@H]2N(C)C(=O)O[C@]12C [Example 10]	12%
CC[C@H]1OC(=O)[C@H](C)[C@@H](O[C@H]2C[C@@](C)(OC)[C@@H](OC(=O)CCN(C)C)[C@H](C)O2)[C@H](C)[C@@H](O[C@@H]2O[C@H](C)C[C@H](N(C)C)[C@H]2O)[C@](C)(OC)C[C@@H](C)C(=O)N[C@H](C)[C@@H](O)[C@]1(C)O [Example 12]	8%

---

system: IL-8; assay: Inhibition of IL-8 production by stimulated human peripheral blood leukocytes in vitro; assay type: cell-based; conditions: Homo sapiens, Leukocyte, 50 μM; PMA-stimulated PBL; read-out: Percentage of inhibition of IL-8 production

compound	study_target	unit_name	inhibition at 50 µM
CC[C@H]1OC(=O)[C@H](C)[C@@H](O[C@H]2C[C@@](C)(OC)[C@@H](OCCCN)[C@H](C)O2)[C@H](C)[C@@H](O[C@@H]2O[C@H](C)C[C@H](N(C)C)[C@H]2O)[C@](C)(O)C[C@@H](C)CN(C)[C@H](C)[C@H]2OC(=O)O[C@@]21C [Example 51C]	IL-8	%	0
CC[C@H]1OC(=O)[C@H](C)[C@@H](OC2C[C@@](C)(OC)[C@@H](OC(=O)CCN3CCNCC3)[C@H](C)O2)[C@H](C)[C@@H](OC2O[C@H](C)C[C@H](N(C)C)[C@H]2O)[C@](C)(OC)C[C@@H](C)C(=O)[C@H](C)[C@@H](O)[C@]1(C)O (stereo partly shown)	IL-8	%	100
CC[C@H]1OC(=O)[C@H](C)C(O[C@H]2C[C@@](C)(OC)[C@@H](OC(=O)CCN(CC)CC)[C@H](C)O2)[C@H](C)[C@@H](O[C@@H]2O[C@H](C)C[C@H](N(C)C)[C@H]2O)[C@](C)(OC)C[C@@H](C)C(=O)[C@H](C)[C@H](O)[C@]1(C)O (stereo partly shown)	IL-8	%	95
CC[C@H]1OC(=O)[C@H](C)[C@@H](O[C@H]2C[C@@](C)(OC)[C@@H](OC(=O)CCN(C)CCO)[C@H](C)O2)[C@H](C)[C@@H](O[C@@H]2O[C@H](C)C[C@H](N(C)C)[C@H]2O)[C@](C)(OC)C[C@@H](C)C(=O)N[C@H](C)[C@@H](O)[C@]1(C)O	IL-8	%	95
